- Tested on: UO-31
- PROTOCOL DETAILS: NCI tumour cell line growth inhibition, 48 h
Calls of active or inactive are those of the source. Cut-off read from the data, not from the text of the source: active = GI50 up to about 1.1 µM and inactive = higher.
Outcome field: choose from active, inactive

These recorded examples may help you get a feel for the data.
COMPOUND	TARGET ENTITY	LABEL
Cn1c(-c2ccccc2)cc(-c2ccsc2)c1-c1ccsc1	UO-31	inactive
Cn1cc(-c2n[nH]c(-c3ccc(Cl)cc3)nc2=O)c2ccccc21	UO-31	active
COc1cc(/C=C/C(=O)c2sc(NNC(C)=O)nc2C)ccc1O	UO-31	inactive
N#CC1(CCCCl)CCCCC1	UO-31	inactive
O=[N+]([O-])/C(Cl)=C(\NCCN/C(C(Cl)=C(Cl)Cl)=C(/Cl)[N+](=O)[O-])C(Cl)=C(Cl)Cl	UO-31	inactive

stdin: Status in this test for CN(C)c1ccc(/C=C2\N=C(c3ccccc3)N(/N=C3\C(=O)Nc4ccccc43)C2=O)cc1 ?
stdout: inactive

stdin: Status in this test for COc1ccc(/C=C2/C(=O)N(C(=O)c3ccccc3O)N=C2C)cc1 ?
stdout: active

stdin: Status in this test for O=C1C(Cl)=C(Cl)C(=O)N1c1ccc(F)cc1 [FLUOROIMIDE] ?
stdout: inactive

stdin: Status in this test for CCOC(=O)COc1ccc(/C=C/C(=O)c2ccc(OC)cc2)cc1 ?
stdout: inactive

stdin: Status in this test for O=C(/C=C/C=C/c1ccccc1)c1ccc2c(c1)CCCC2 ?
stdout: inactive
